- TESTED_SYSTEM: T1, MHC class I allele A*0101 (bound via biotin to streptavidin-coated plate)
- T1 construct: iTopia MHC class I monomer on the plate; placeholder peptide and b2M removed, then reconstituted with test peptide and fresh b2M; also called A1; HLA A1
- EXPERIMENT: iTopia peptide binding assay
- Description: The 9 mers were tested for Peptide Binding, Off Rate and Affinity using iTopia Epitope Discovery System in accordance with the manufacturer's instructions. Briefly, 96 well microtitre plates coated with MHC molecules representing different MHC alleles are used to identify candidate peptides. […] Determinations are performed in duplicate using an ELISA plate reader and included allele specific positive controls. […]
PARAMETER: % of positive control peptide binding (%)
The figure you give is taken to be in %; do not add the unit.

PAAGDGRLR (also called Peptide No 5) [5T4 9 mer peptide 5 PAAGDGRLR] :: 4
PDQCPALCE (also called Peptide No 30) [5T4 9 mer peptide 30 PDQCPALCE] :: 5
LAELAALNL (also called Peptide No 59) [5T4 9 mer peptide 59 LAELAALNL] :: 15

Turning to the following binder.
binder CSRGPAAGD (also called Peptide No 3) [5T4 9 mer peptide 3 CSRGPAAGD] , % of positive control peptide binding observed: 0
